Hello, the source for this data is ChEMBL document CHEMBL3286109, in case you need it.

- protocol.notes: Inhibition of HIV1 HXB2 gp41-mediated cell-cell fusion between viral envelope-expressing human HL2/3 cells to human TZM-bl cells by luciferase reporter assay
- Assay type: cell-based
- experimental.context: Human immunodeficiency virus 1, HXB2, TZM-bl
Class field: derived from EC50; ranges low: < 2 µM; intermediate: ≥ 2 µM and < 7 µM; high: ≥ 7 µM

Incoming: Record "COc1cccc(Cn2cnc3ccc(-c4ccc5ccn(Cc6cccc(C(=O)O)c6)c5c4)cc32)c1" — which class?
Outgoing: high

Incoming: Record "COc1cccc(Cn2cnc3cc(-c4ccc5ccn(Cc6cccc(C(=O)O)c6)c5c4)ccc32)c1" — which class?
Outgoing: high

Incoming: Record "CCOC(=O)c1cccc(Cn2ccc3ccc(-c4ccc5ccn(Cc6cccc(C(=O)O)c6)c5c4)cc32)c1" — which class?
Outgoing: low

Incoming: Record "COC(=O)c1cccc(Cn2ccc3ccc(-c4ccc5ccn(Cc6cccc(C(=O)O)c6)c5c4)cc32)c1" — which class?
Outgoing: low

Incoming: Record "COc1cccc(Cn2ccc3ccc(-c4ccc5ncn(Cc6cccc(C(=O)O)c6)c5c4)cc32)c1" — which class?
Outgoing: high

Incoming: Record "COc1cccc(-c2ccc3ccn(Cc4cccc(C(=O)O)c4)c3c2)c1" — which class?
Outgoing: high

Incoming: Record "COc1ccc(Cn2ccc3cc(-c4ccc5ccn(Cc6cccc(C(=O)O)c6)c5c4)ccc32)cc1" — which class?
Outgoing: intermediate

Incoming: Record "O=C(O)c1cccc(Cc2c[nH]c3ccc(-c4ccc5cc[nH]c5c4)cc23)c1" — which class?
Outgoing: intermediate

Incoming: Record "Cn1nnc2ccc(Cn3ccc4ccc(-c5ccc6ccn(Cc7cccc(C(=O)O)c7)c6c5)cc43)cc21" — which class?
Outgoing: intermediate

Incoming: Record "COc1cccc(Cn2ccc3ccc(-c4ccc5ccn(Cc6cccc(C(=O)O)c6)c5c4)cc32)c1" — which class?
Outgoing: low

Incoming: Record "O=C(O)c1cccc(Cn2ccc3ccc(-c4cccc(O)c4)cc32)c1" — which class?
Outgoing: high

Incoming: Record "COc1cccc(Cc2c[nH]c3cc(-c4ccc5c(Cc6cccc(C(=O)O)c6)c[nH]c5c4)ccc23)c1" — which class?
Outgoing: intermediate

Incoming: Record "COc1cc(Cn2ccc3ccc(-c4ccc5ccn(Cc6cccc(C(=O)O)c6)c5c4)cc32)cc(OC)c1" — which class?
Outgoing: intermediate

----------
Exercise: state measured CC50 for each of the compounds provided.
- protocol.notes: Cytotoxicity against human MAGI-CCR5 cells assessed as inhibition of cell viability by MTS assay
- Assay type: cell-based
- experimental.context: read-out: TC50 (the source's name)
Please respond with the number in µM and leave the unit unwritten.

Incoming: Looking for the measured CC50 of "COc1ccc(Cn2ccc3cc(-c4ccc5c(ccn5Cc5cccc(C(=O)O)c5)c4)ccc32)cc1" , can you help?
Outgoing: 55

Incoming: Looking for the measured CC50 of "O=C(O)c1cccc(Cn2ccc3ccc(-c4ccc5ccn(Cc6ccc(-c7ccccc7)cc6)c5c4)cc32)c1" , can you help?
Outgoing: 55

Incoming: Looking for the measured CC50 of "Cn1nnc2ccc(Cn3ccc4ccc(-c5ccc6ccn(Cc7cccc(C(=O)O)c7)c6c5)cc43)cc21" , can you help?
Outgoing: 52

Incoming: Looking for the measured CC50 of "COc1ccc(Cn2ccc3cc(-c4ccc5ccn(Cc6cccc(C(=O)O)c6)c5c4)ccc32)cc1" , can you help?
Outgoing: 24

----------
- protocol.notes: Binding affinity to HIV1 Envelope glycoprotein gp41 Fe(env2.0)3 using C18FL as probe by fluorescence assay
- Design: species or system Human immunodeficiency virus 1
quantity.kind: pKi
Hey, just a heads up that pKi is the negative log base 10 of the concentration in molar.

Incoming: Looking for the measured pKi of "O=C(O)c1cccc(Cn2ccc3ccc(-c4ccc5ccn(Cc6ccc(-c7ccccc7)cc6)c5c4)cc32)c1" , can you help?
Outgoing: 5.70

Incoming: Looking for the measured pKi of "COC(=O)c1cccc(Cn2ccc3ccc(-c4ccc5ccn(Cc6cccc(C(=O)O)c6)c5c4)cc32)c1" , can you help?
Outgoing: 6.22

Incoming: Looking for the measured pKi of "O=C(O)c1cccc(Cn2ccc3ccc(-c4ccc5ccn(Cc6ccc(F)cc6)c5c4)cc32)c1" , can you help?
Outgoing: 5.77

Incoming: Looking for the measured pKi of "O=C(O)c1cccc(Cn2cnc3cc(-c4ccc5cc[nH]c5c4)ccc32)c1" , can you help?
Outgoing: 4.80

Incoming: Looking for the measured pKi of "O=C(O)c1cccc(Cn2ccc3ccc(-c4ccc5ccn(Cc6ccc(Oc7ccccc7F)cc6)c5c4)cc32)c1" , can you help?
Outgoing: 5.02

Incoming: Looking for the measured pKi of "O=C(O)c1cccc(Cn2ccc3ccc(-c4ccc5ccn(Cc6ccc(C(F)(F)F)cc6)c5c4)cc32)c1" , can you help?
Outgoing: 6.00

Incoming: Looking for the measured pKi of "COc1cccc(Cc2c[nH]c3cc(-c4ccc5c(Cc6cccc(C(=O)O)c6)c[nH]c5c4)ccc23)c1" , can you help?
Outgoing: 6.05

Incoming: Looking for the measured pKi of "COc1ccc(Cn2ccc3cc(-c4ccc5ccn(Cc6cccc(C(=O)O)c6)c5c4)ccc32)cc1" , can you help?
Outgoing: 5.38

Incoming: Looking for the measured pKi of "COc1cccc(Cn2ccc3ccc(-c4ccc5ncn(Cc6cccc(C(=O)O)c6)c5c4)cc32)c1" , can you help?
Outgoing: 5.22

----------
- protocol.notes: Therapeutic index, ratio of TC50 for human PBMC to EC50 for HIV-1 91DJ263 subtype CRF02_AG infected in human PBMC
- experimental.context: read-out: TI
quantity.kind: selectivity ratio
The response must contain the number and no unit.

Incoming: Looking for the measured selectivity ratio of "COC(=O)c1cccc(Cn2ccc3ccc(-c4ccc5ccn(Cc6cccc(C(=O)O)c6)c5c4)cc32)c1" , can you help?
Outgoing: 29.7

----------
- protocol.notes: Therapeutic index, ratio of TC50 for human PBMC to EC50 for HIV-1 Ba-L subtype B infected in human PBMC
- experimental.context: read-out: TI
quantity.kind: selectivity ratio
The response must contain the number and no unit.

Incoming: Looking for the measured selectivity ratio of "COC(=O)c1cccc(Cn2ccc3ccc(-c4ccc5ccn(Cc6cccc(C(=O)O)c6)c5c4)cc32)c1" , can you help?
Outgoing: 32.2

----------
- protocol.notes: Cytotoxicity against human MAGI-CCR5 cells assessed as inhibition of cell viability by MTS assay
- Type: cell-based
- experimental.context: read-out: TC50 (the source's name)
Exercise: state measured CC50 for each of the molecules provided.
Please respond with the number in µM and leave the unit unwritten.

Incoming: Looking for the measured CC50 of "CCOC(=O)c1cccc(Cn2ccc3ccc(-c4ccc5ccn(Cc6cccc(C(=O)O)c6)c5c4)cc32)c1" , can you help?
Outgoing: 43

Incoming: Looking for the measured CC50 of "COc1cccc(Cn2ccc3ccc(-c4ccc5ccn(Cc6cccc(C(=O)O)c6)c5c4)cc32)c1" , can you help?
Outgoing: 37

Incoming: Looking for the measured CC50 of "O=C(O)c1cccc(Cc2c[nH]c3cc(-c4ccc5cc[nH]c5c4)ccc23)c1" , can you help?
Outgoing: 23

Incoming: Looking for the measured CC50 of "COc1cccc(Cc2c[nH]c3cc(-c4ccc5ccn(Cc6cccc(C(=O)O)c6)c5c4)ccc23)c1" , can you help?
Outgoing: 24

Incoming: Looking for the measured CC50 of "COc1cccc(Cn2ccc3ccc(-c4ccc5c(Cc6cccc(C(=O)O)c6)c[nH]c5c4)cc32)c1" , can you help?
Outgoing: 34

Incoming: Looking for the measured CC50 of "COc1ccc(Cn2ccc3ccc(-c4ccc5c(ccn5Cc5cccc(C(=O)O)c5)c4)cc32)cc1" , can you help?
Outgoing: 18

Incoming: Looking for the measured CC50 of "COC(=O)c1cccc(Cc2c[nH]c3ccc(-c4ccc5[nH]cc(Cc6cccc(C(=O)O)c6)c5c4)cc23)c1" , can you help?
Outgoing: 31

----------
- protocol.notes: Binding affinity to HIV1 Envelope glycoprotein gp41 Fe(env2.0)3 using C18FL as probe by fluorescence assay
- Parameters: species or system Human immunodeficiency virus 1
Exercise: state measured pKi for each of the molecules provided.
Hey, just a heads up that pKi is the negative log base 10 of the concentration in molar.

Incoming: Looking for the measured pKi of "O=C(O)c1cccc(Cn2ccc3cc(-c4ccc5ccn(Cc6cccc(C(=O)O)c6)c5c4)ccc32)c1" , can you help?
Outgoing: 6.15

Incoming: Looking for the measured pKi of "NC(=O)c1cccc(Cn2ccc3ccc(-c4ccc5ccn(Cc6cccc(C(=O)O)c6)c5c4)cc32)c1" , can you help?
Outgoing: 6.10

Incoming: Looking for the measured pKi of "O=C(O)c1cccc(Cc2c[nH]c3cc(-c4ccc5cc[nH]c5c4)ccc23)c1" , can you help?
Outgoing: 6.22

Incoming: Looking for the measured pKi of "COC(=O)c1cccc(Cc2c[nH]c3ccc(-c4ccc5[nH]cc(Cc6cccc(C(=O)O)c6)c5c4)cc23)c1" , can you help?
Outgoing: 5.92

----------
- protocol.notes: Inhibition of HIV1 HXB2 gp41-mediated cell-cell fusion between viral envelope-expressing human HL2/3 cells to human TZM-bl cells by luciferase reporter assay
- Assay type: cell-based
- experimental.context: Human immunodeficiency virus 1, HXB2, TZM-bl
quantity.kind: EC50 (µM)
Please respond with the number in µM and leave the unit unwritten.

Incoming: Looking for the measured EC50 of "O=C(O)c1cccc(Cn2ccc3cc(-c4ccc5cc(Cl)ccc5n4)ccc32)c1" , can you help?
Outgoing: 8

Incoming: Looking for the measured EC50 of "O=C(O)c1cccc(Cn2ccc3ccc(-c4ccc5ccn(Cc6ccc(-c7ccccc7)cc6)c5c4)cc32)c1" , can you help?
Outgoing: 13

Incoming: Looking for the measured EC50 of "COc1cccc(Cn2ccc3ccc(-c4ccc5c(c4)ncn5Cc4cccc(C(=O)O)c4)cc32)c1" , can you help?
Outgoing: 6

Incoming: Looking for the measured EC50 of "COc1cccc(Cc2c[nH]c3cc(-c4ccc5ccn(Cc6cccc(C(=O)O)c6)c5c4)ccc23)c1" , can you help?
Outgoing: 6

Incoming: Looking for the measured EC50 of "O=C(O)c1cccc(Cc2c[nH]c3cc(-c4ccc5cc[nH]c5c4)ccc23)c1" , can you help?
Outgoing: 6

Incoming: Looking for the measured EC50 of "Cn1ccc2ccc(-c3ccc4ccn(Cc5cccc(C(=O)O)c5)c4c3)cc21" , can you help?
Outgoing: 1.3

Incoming: Looking for the measured EC50 of "O=C(O)c1cccc(Cn2ccc3ccc(-c4ccc5ccn(Cc6ccc(F)cc6)c5c4)cc32)c1" , can you help?
Outgoing: 1.1

Incoming: Looking for the measured EC50 of "O=C(O)c1cccc(Cn2cnc3ccc(-c4ccc5cc[nH]c5c4)cc32)c1" , can you help?
Outgoing: 14

Incoming: Looking for the measured EC50 of "NC(=O)c1cccc(Cn2ccc3ccc(-c4ccc5ccn(Cc6cccc(C(=O)O)c6)c5c4)cc32)c1" , can you help?
Outgoing: 6

Incoming: Looking for the measured EC50 of "O=C(O)c1cccc(Cn2ccc3ccc(-c4ccc5ccn(Cc6ccc(Oc7ccccc7F)cc6)c5c4)cc32)c1" , can you help?
Outgoing: 8.2

Incoming: Looking for the measured EC50 of "O=C(O)c1cccc(Cn2ccc3ccc(-c4ccc5ccn(Cc6cccc(C(=O)O)c6)c5c4)cc32)c1" , can you help?
Outgoing: 12
